# target desc: LYP/PTPN22 (Homo sapiens, UniProt Q9Y2R2)
# Construct: catalytic domains of LYP (aa 2-309) and PTP-PEST (aa 2-323, PEST); 6xHis (N, cleaved yes); made in house; host or cells: E. coli BL21
# Sequence (Q9Y2R2 2-309): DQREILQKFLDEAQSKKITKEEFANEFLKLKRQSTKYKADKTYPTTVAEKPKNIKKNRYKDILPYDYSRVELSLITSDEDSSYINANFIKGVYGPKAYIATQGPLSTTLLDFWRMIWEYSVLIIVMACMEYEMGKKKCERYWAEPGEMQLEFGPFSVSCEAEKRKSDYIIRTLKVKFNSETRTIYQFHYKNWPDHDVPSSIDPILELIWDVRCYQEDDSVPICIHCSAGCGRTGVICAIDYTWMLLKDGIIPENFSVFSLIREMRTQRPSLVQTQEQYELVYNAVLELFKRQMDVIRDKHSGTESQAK
# assay overview: biochemical
# condition set: selectivity, ratio PEST IC50 / LYP IC50, Table IV
Listed compounds paired with reported PEST_LYP

Qu. So what PEST_LYP did Cc1cc(C)c2[nH]c(=O)c([C@H](c3nnnn3C(C)(C)C)N3CCCC4(CCCCC4)C3)cc2c1 [compound 19] get with LYP/PTPN22 (Homo sapiens, UniProt Q9Y2R2)?
Ans. 2.27

Qu. Param readout = PEST_LYP; param system = LYP/PTPN22 (Homo sapiens, UniProt Q9Y2R2); param query = Cc1ccc2cc([C@H](c3nnnn3C3CCCC3)N3CCN(c4ccccc4)CC3)c(=O)[nH]c2c1 [compound 41] ; response: value
Ans. ~1.18

Qu. Form entry - test system: LYP/PTPN22 (Homo sapiens, UniProt Q9Y2R2); read-out: PEST_LYP; compound: Cc1ccc2[nH]c(=O)c([C@@H](c3nnnn3C3CCCC3)N3CCc4ccccc4C3)cc2c1 [compound 39]
Ans. 1.28

Next up:
Qu. Item: Cc1cc(C)c2cc([C@H](c3nnnn3C3CCCC3)N3CCC[C@@H](C)C3)c(=O)[nH]c2c1 [compound 40] Test system: LYP/PTPN22 (Homo sapiens, UniProt Q9Y2R2) Read-out: PEST_LYP Value: ?
Ans. 1.12

* * *

# target desc: LYP/PTPN22 (Homo sapiens)
# Construct: catalytic domains of LYP (aa 2-309) and PTP-PEST (aa 2-323, PEST); 6xHis (N, cleaved yes); made in house; host or cells: E. coli BL21
# assay overview: biochemical
# condition set: selectivity, ratio PEST IC50 / LYP IC50, Table IV
Listing: PEST_LYP of selected molecules
Answer with the value's number alone.

Qu. Any idea what PEST_LYP came out for `Cc1ccc2cc([C@H](c3nnnn3CC3CCCC3)N3CCCC4(CCCCC4)C3)c(=O)[nH]c2c1` on LYP/PTPN22 (Homo sapiens)?
Ans. 2.22

New cases:
Qu. // lookup PEST_LYP | system=LYP/PTPN22 (Homo sapiens) | key= `Cc1ccc2cc([C@H](c3nnnn3C(C)(C)C)N3CCCC4(CCCCC4)C3)c(=O)[nH]c2c1`
Ans. 1.33

Qu. Enter reported PEST_LYP observed with LYP/PTPN22 (Homo sapiens) for `CCC(C)(C)n1nnnc1[C@@H](c1cc2ccc(OC)cc2[nH]c1=O)N1CCCC2(CCCCC2)C1`
Ans. 1.33

* * *

# target desc: HePTP (Homo sapiens)
# Sequence (P35236 65-360): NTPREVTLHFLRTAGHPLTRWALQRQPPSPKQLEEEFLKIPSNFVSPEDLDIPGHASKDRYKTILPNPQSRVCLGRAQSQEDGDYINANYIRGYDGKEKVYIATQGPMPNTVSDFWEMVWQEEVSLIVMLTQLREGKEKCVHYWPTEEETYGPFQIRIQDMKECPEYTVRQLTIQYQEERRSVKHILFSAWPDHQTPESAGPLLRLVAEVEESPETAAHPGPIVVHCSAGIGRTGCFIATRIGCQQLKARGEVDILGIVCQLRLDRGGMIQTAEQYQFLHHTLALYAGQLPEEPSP
pIC50: −log10 of the molar value.
test readout: pIC50

Qu. Give recorded pIC50 with HePTP (Homo sapiens) for the following compound: O=C(CSc1nc(C2CC2)nc2sc3c(c12)CCCC3)NCc1ccc2c(c1)OCO2 [G8P15]
Ans. < 4.40

* * *

# target desc: LYP/PTPN22 (Homo sapiens)
# Construct: catalytic domains of LYP (aa 2-309) and PTP-PEST (aa 2-323, PEST); 6xHis (N, cleaved yes); made in house; host or cells: E. coli BL21
# assay overview: biochemical
Output met for records whose PEST_LYP is lower than 1, not met for records at or above 1.

See these solved cases before continuing.
Qu. Check if PEST_LYP falls below 1 for `Cc1ccc2[nH]c(=O)c([C@H](c3nnnn3C3CCCC3)N3CCN(c4ccccc4F)CC3)cc2c1` .
Ans. met

Qu. Does the reported PEST_LYP of the following compound sit strictly below 1? Cc1ccc2cc(C(c3nnnn3C3CCCC3)N3CCN(C(c4ccccc4)c4ccccc4)CC3)c(=O)[nH]c2c1C (stereo not drawn)
Ans. not met

Qu. PEST_LYP strictly < 1 for this compound? Cc1cccc2cc(C(c3nnnn3C3CCCC3)N3CCN(C(c4ccccc4)c4ccccc4)CC3)c(=O)[nH]c12 (stereo not drawn)
Ans. met

Qu. Is PEST_LYP of Cc1cc(C)c2cc(C(c3nnnn3C3CCCC3)N3CCCC4(CCCCC4)C3)c(=O)[nH]c2c1 (stereo not drawn) strictly below 1?
Ans. not met

Qu. Given COc1ccc2cc(C(c3nnnn3C3CCCC3)N3CCCC4(CCCCC4)C3)c(=O)[nH]c2c1 (stereo not drawn) , is recorded PEST_LYP strictly lower than 1?
Ans. not met

New cases:
Qu. Determine whether this compound shows PEST_LYP lower than 1 (ties excluded): Cc1ccc2cc(C(c3nnnn3C3CCCC3)N3CCCC4(CCCCC4)C3)c(=O)[nH]c2c1C (stereo not drawn)
Ans. not met

Qu. Report whether reported PEST_LYP is lower than 1 (strictly) for `Cc1ccc2[nH]c(=O)c([C@H](c3nnnn3C3CCCC3)N3CCC(C)CC3)cc2c1`
Ans. not met

Qu. Take the compound Cc1ccc2[nH]c(=O)c(C(c3nnnn3C3CCCC3)N3CCN(C(c4ccccc4)c4ccccc4)CC3)cc2c1 (stereo not drawn) and say whether its PEST_LYP is less than 1.
Ans. not met

Qu. Lab log: compare recorded PEST_LYP with 1; is it strictly lower for Cc1ccc2cc(C(c3nnnn3C3CCCC3)N3CCN(C(c4ccccc4)c4ccccc4)CC3)c(=O)[nH]c2c1 (stereo not drawn) ?
Ans. met
